FYI, the data here is from the supplement of paper PMC6555819.

- Tested on: PPARg:RXRa 30nM:10nM, anti-RXR (NR concentration 30 nM, RXRa partner concentration 10 nM)
- Procedure text: PBM binding z-score (relative to random genomic background probes); higher = stronger binding; sequences stand for … in GC…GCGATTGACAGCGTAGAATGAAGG
Use 2 as the dividing line for PBM binding z-score, with the line itself on the yes side and lower values as no.

Lookup: Is PBM binding z-score for TCATATAGGTAATACAGCTGAAAGTCGGCATCTA at or above 2?
Found: yes

Lookup: Is PBM binding z-score for GCTGCTAGGTCAACTGATGGTCCGCTAAAGCTCG at or above 2?
Found: no

Lookup: Is PBM binding z-score for AGAACGAGGGCTATGAGTTGATAGCACGGGTGGC at or above 2?
Found: no

Lookup: Is PBM binding z-score for CGTCCAAGGTCAAGGTCAGTGATAGAGACTCGAA at or above 2?
Found: yes

Lookup: Is PBM binding z-score for AGAACGAGGGCACGCTGAGATGATAGCAGAGTAG at or above 2?
Found: no

Lookup: Is PBM binding z-score for TAGCCTAGGTCATGGACCAGTATACCACGCGAAC at or above 2?
Found: no

Lookup: Is PBM binding z-score for ATCTCTAAGTAAAGTTCAGTGAAAGATCGATAGA at or above 2?
Found: no

Lookup: Is PBM binding z-score for CAAACTAGGTCAGGGTCAAAGTCGGTTTGTGCCA at or above 2?
Found: yes

Lookup: Is PBM binding z-score for GCGACTGGGGCAGCAGCAGGTTACCATAACTTAA at or above 2?
Found: no

Lookup: Is PBM binding z-score for GCTCGGAGGACAACGTCAGAGCTTTGTCCGTAGA at or above 2?
Found: no

Next:
Lookup: Is PBM binding z-score for CGTCAAAGTTCAAAGTAACGTAACAGAAAGCAGC at or above 2?
Found: yes

Lookup: Is PBM binding z-score for TCTCGGAGGACACGAAGGTCAGAGCTTTCCAGAG at or above 2?
Found: yes

----------
- Test system: PPARg:RXRa (NR concentration 180 nM, RXRa partner concentration 90 nM)
- Procedure text: PBM binding z-score (relative to random genomic background probes); higher = stronger binding; sequences stand for … in GC…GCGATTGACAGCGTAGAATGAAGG
Below, each entry is listed with its recorded PBM binding z-score.
Answer with the value's number alone.

Lookup: Output measured PBM binding z-score for this item: ACTAGCAGGCCAAGGGTCACTCAGGATTAGTCCG
Found: 7.87

Lookup: Output measured PBM binding z-score for this item: TCGAGTCGGTTAGTCGGGGCATTCAGCCAACATA
Found: -0.72

Lookup: Output measured PBM binding z-score for this item: TGAATGAGGTTCAAGATCAGGGAACGTGGCGTCG
Found: 0.831

Lookup: Output measured PBM binding z-score for this item: GCATATAGGTAATACAAGGTGAAAATCCGATTGT
Found: 1.55

Lookup: Output measured PBM binding z-score for this item: CAAACTAGGTAAAAGGTCAAAGTCGAGCCAACCA
Found: 12.1

Next:
Lookup: Output measured PBM binding z-score for this item: CCTAGTTGGTCAATGTCACACACGCTATAGGTAC
Found: 1.17

Lookup: Output measured PBM binding z-score for this item: CCAGACAGTTGAGAAGGTAACTCAGCCTCGATTA
Found: 0.175

Lookup: Output measured PBM binding z-score for this item: CTCGAAAGGTCGTGCTCAGGTGACTATACCAAAC
Found: 2.84

Lookup: Output measured PBM binding z-score for this item: TAGCCTAGGTCAGATCGGGCCAGTTTACGCTATA
Found: 0.188

Lookup: Output measured PBM binding z-score for this item: CAAACTAGGTGAAGAGGTCAAAGTCCGCTTCCCG
Found: 8.28

Lookup: Output measured PBM binding z-score for this item: CCTTACGGGTCGCTCCAGGTTATAGCATCGGAGT
Found: 0.136

Lookup: Output measured PBM binding z-score for this item: GATACAGGGTCAAGGCCCGAGTACGCGTATTGAT
Found: 5.65

Lookup: Output measured PBM binding z-score for this item: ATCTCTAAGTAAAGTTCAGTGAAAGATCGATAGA
Found: 1.4

Lookup: Output measured PBM binding z-score for this item: CCTAGTCGGTCAAGGTCACACACGCTATAGGTAC
Found: 4.76

Lookup: Output measured PBM binding z-score for this item: TCTTGTAGATCAAAGGTTAAGAACGCCGAAGCCT
Found: 8.19

Lookup: Output measured PBM binding z-score for this item: TAGCCTAGGTCATGGCCCAGTATACCACGCGAAC
Found: 4.27

Lookup: Output measured PBM binding z-score for this item: GCTTACGGGTCAAAGTTTATAGCATGAATAGAAT
Found: 9.24

Lookup: Output measured PBM binding z-score for this item: ACTTACGGGTCAACGAGGTTATTGCACGCGTATA
Found: 5.89

Lookup: Output measured PBM binding z-score for this item: TCGAGTAGGTTACCAATAGGGCATTCAGCTTTCT
Found: 0.697

Lookup: Output measured PBM binding z-score for this item: CCGACTGGGGCAGAAAGCTTACCATACCATCCGG
Found: 0.434

Lookup: Output measured PBM binding z-score for this item: TCGAGTAGGTGAGTCGGGGCATTCAGCCAACATA
Found: 0.173

Lookup: Output measured PBM binding z-score for this item: AGAACGAGGGCACGATGAGTTGATAGCAGAGTAG
Found: 2.6

Lookup: Output measured PBM binding z-score for this item: CTACCAAGGTGAACAAGGTCGCTGATTACTATTC
Found: 1.17

Lookup: Output measured PBM binding z-score for this item: GCGACTGGGGGATCAGCAGGTTACCATAACTTAA
Found: 0.824

Lookup: Output measured PBM binding z-score for this item: CGAACAAGGTCAGAACAGGACAGTGAAGGATGAT
Found: 3.09

Lookup: Output measured PBM binding z-score for this item: CATACAGGGTCAGCTAGGCCACAGTAGGGACGGC
Found: 3.75

Lookup: Output measured PBM binding z-score for this item: TCTATTAGTTGAAGGGAAACCGACGAGTCCGTTT
Found: -0.183

Lookup: Output measured PBM binding z-score for this item: ATATATAGGTTATCGGGTCATTCAGTTTGCGCAT
Found: 7.65

----------
- System: RXRa DBDmut IVT, anti-RXR (DBD mutation: RXRa K156A/R161A, NR concentration 90 nM)
- Procedure text: PBM binding z-score (relative to random genomic background probes); higher = stronger binding; sequences stand for … in GC…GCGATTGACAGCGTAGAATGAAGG
Use 0.05 as the dividing line for PBM binding z-score, with the line itself on the TRUE side and lower values as FALSE.

Lookup: Is PBM binding z-score for TCATATTGGTAAAGGTGAAAGTCGAACGATATGA at or above 0.05?
Found: TRUE

Lookup: Is PBM binding z-score for CCTTACGAGTCACTGACAGGTTATAGCATTTGGA at or above 0.05?
Found: TRUE

Lookup: Is PBM binding z-score for GCTGCTAGGTCCGGTTGGTCAGCTAACGGGTACG at or above 0.05?
Found: FALSE

Lookup: Is PBM binding z-score for GGAACGAGGGCAAAGTAGATAGCATCTGTCGACG at or above 0.05?
Found: TRUE

Next:
Lookup: Is PBM binding z-score for CAAACTAGGTCAAGGTCAAACTCGGTTTGTGCCA at or above 0.05?
Found: TRUE

----------
- Test system: PPARa:RXRa (NR concentration 270 nM, RXRa partner concentration 90 nM)
- Procedure text: PBM binding z-score (relative to random genomic background probes); higher = stronger binding; sequences stand for … in GC…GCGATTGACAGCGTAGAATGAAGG
Metric name: PBM binding z-score
Answer with the value's number alone.

See these solved cases before continuing.
Lookup: Output measured PBM binding z-score for this item: TTGAGTAGGTTAGTCGGGGCATTCAGCCAACATA
Found: 1.11

Lookup: Output measured PBM binding z-score for this item: AGAATGAGCTTATACGTAGATCAGGGAAGAAAGT
Found: -0.706

Lookup: Output measured PBM binding z-score for this item: CGTCCAAGGACAGCAGGTCAGTGAAAGCGACGTG
Found: 0.599

Lookup: Output measured PBM binding z-score for this item: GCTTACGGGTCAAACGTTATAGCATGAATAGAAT
Found: 5.72

Lookup: Output measured PBM binding z-score for this item: GCTTGTAGATCAAGGTTAAGATAGACTAAGCTAA
Found: 1.66

Next:
Lookup: Output measured PBM binding z-score for this item: AATACAGGGTCATCGTAGGCCGGAGTACGCACAG
Found: 5.62
